molecular target: Neu5Ac(a2-3)Gal(b1-3)GlcNAc(b1-2)[Neu5Ac(a2-3)Gal(b1-3)GlcNAc(b1-4)]Man(a1-6)[Neu5Ac(a2-3)Gal(b1-3)GlcNAc(b1-2)Man(a1-3)]Man(b1-4)GlcNAc(b1-4)GlcNAc; test: glycan array binding signal (z-score within array); higher = stronger binding; conditions: glycan notation: IUPAC condensed, linker removed
The sample as a whole holds a higher share of the strongest signals than the screen did.
MEASURED PARAMETER: glycan array binding signal (z-score)
Just the number.

Field: example entries. Status: answers known.
Epa15 (Candida glabrata) (protein) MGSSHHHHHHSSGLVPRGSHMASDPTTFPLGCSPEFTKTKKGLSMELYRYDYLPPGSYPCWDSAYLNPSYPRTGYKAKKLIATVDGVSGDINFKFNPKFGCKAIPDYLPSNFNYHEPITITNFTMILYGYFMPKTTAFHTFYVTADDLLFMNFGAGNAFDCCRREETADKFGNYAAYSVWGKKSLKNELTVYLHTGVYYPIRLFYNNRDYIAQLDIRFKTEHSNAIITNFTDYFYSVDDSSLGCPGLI; -0.226
LF82 (Escherichia coli) (protein) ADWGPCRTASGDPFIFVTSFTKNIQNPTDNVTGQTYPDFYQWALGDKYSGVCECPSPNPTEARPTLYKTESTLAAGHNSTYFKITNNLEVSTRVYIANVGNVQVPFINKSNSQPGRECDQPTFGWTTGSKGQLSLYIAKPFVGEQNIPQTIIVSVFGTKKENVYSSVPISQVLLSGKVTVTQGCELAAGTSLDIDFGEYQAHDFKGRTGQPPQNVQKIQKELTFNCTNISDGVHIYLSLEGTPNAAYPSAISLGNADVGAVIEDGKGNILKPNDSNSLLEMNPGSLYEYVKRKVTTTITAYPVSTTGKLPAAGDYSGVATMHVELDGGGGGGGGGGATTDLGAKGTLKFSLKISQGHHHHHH; 4.88
Aap lectin (Staphylococcus epidermidis) (protein) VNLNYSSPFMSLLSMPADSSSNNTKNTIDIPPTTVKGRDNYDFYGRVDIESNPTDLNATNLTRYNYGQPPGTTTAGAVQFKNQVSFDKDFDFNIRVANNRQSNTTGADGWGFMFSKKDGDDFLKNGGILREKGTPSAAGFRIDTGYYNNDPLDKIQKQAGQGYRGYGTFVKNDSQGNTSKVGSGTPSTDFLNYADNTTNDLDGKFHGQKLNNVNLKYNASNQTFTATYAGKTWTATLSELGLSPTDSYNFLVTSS; -0.885

Now examine the next entry.
Query: Reported glycan array binding signal (z-score) for CBM40 CPF071 (Clostridium perfringens) (protein) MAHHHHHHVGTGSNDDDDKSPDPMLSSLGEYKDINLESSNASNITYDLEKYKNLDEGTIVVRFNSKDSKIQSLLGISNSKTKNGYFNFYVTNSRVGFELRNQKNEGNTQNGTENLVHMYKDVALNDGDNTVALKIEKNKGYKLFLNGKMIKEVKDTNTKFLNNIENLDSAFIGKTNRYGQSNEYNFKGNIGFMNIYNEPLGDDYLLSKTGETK : what is it?
Reply: 2.77
